- experimental.target: Kynurenine--oxoglutarate transaminase 3 (Homo sapiens, UniProt Q6YP21)
- Sequence (Q6YP21 whole entry): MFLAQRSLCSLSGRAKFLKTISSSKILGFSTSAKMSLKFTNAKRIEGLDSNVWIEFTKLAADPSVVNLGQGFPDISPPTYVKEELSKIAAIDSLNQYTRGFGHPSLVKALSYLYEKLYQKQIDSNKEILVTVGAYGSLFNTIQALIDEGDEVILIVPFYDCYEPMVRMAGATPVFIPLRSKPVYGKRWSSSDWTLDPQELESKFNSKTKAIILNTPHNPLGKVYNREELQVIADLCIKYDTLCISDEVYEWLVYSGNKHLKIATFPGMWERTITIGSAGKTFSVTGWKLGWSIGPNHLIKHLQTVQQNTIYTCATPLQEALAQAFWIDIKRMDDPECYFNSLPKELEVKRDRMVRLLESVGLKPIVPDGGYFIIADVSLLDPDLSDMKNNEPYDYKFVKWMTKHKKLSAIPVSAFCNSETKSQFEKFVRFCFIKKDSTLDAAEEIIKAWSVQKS
- test.summary: Binding affinity to CCBL2 in human HepG2 assessed as intensity fold change of cumulated normalized intensity of protein between capture and competition assay at 100 uM after 1 hr in presence of active Tcp-CC-13 by differential competition capture compound mass spectrometry
- Format: ADME
Reported fold change (FC) by item:

>  <line.notation>
CCN(CC)C(=O)c1cc2cc(O)c(O)c([N+](=O)[O-])c2cc1C(=O)N(CC)CC

>  <fold change (FC)>
3.05

$$$$
>  <line.notation>
CCN1C(=O)S/C(=C/c2cc(O)c(O)c([N+](=O)[O-])c2)C1=O

>  <fold change (FC)>
3.4

$$$$
>  <line.notation>
Cc1ccc(C(=O)c2cc(O)c(O)c([N+](=O)[O-])c2)cc1

>  <fold change (FC)>
4.12

$$$$
>  <line.notation>
CCN(CC)C(=O)/C(C#N)=C/c1cc(O)c(O)c([N+](=O)[O-])c1

>  <fold change (FC)>
8.63

$$$$

Origin of measurements: ChEMBL document CHEMBL3817783
